- assayed.system: T1, human Trop-2 expressed on cell surface (human, UniProt P09758 27-323)
- T1 sequence (looked up): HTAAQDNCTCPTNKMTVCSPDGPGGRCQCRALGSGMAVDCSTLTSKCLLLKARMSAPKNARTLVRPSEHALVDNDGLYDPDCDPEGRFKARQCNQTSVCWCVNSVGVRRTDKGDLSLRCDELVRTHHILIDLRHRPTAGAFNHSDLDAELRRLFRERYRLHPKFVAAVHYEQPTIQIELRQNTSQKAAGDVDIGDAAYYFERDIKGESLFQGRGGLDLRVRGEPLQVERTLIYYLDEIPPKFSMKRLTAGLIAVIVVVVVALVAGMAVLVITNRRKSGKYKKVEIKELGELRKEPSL
- experimental.details: cell-based or functional assay
Below is a list of entries, each paired with its recorded Internalization %, MDA-MB-231, 1 µg/ml, 4 h value.
Output spec: scalar in %, unitless text.

>  <binder>
66A1 (antibody, V domains shown, Rabbit-derived clone; LEM construct: VH + rabbit IgG CH1 + human IgG1 CH2-CH3) VH: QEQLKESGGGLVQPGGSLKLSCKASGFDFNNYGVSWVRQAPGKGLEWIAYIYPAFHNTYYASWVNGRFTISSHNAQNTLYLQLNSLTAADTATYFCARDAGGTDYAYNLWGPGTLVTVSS VL: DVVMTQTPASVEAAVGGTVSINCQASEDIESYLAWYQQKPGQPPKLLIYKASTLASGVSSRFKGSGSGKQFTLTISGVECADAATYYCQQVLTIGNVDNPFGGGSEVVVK

>  <value.units>
%

>  <observed>
49

$$$$

// query What does the data say about its Internalization %, MDA-MB-231, 1 µg/ml, 4 h? Entry: 9F7 (antibody, V domains shown, Rabbit-derived clone; LEM construct: VH + rabbit IgG CH1 + human IgG1 CH2-CH3) VH: QEQLKESGGGLVQPGGSLTLSCKASGFDFNNYGVSWVRQAPGKGLEWIGYIYPAYHNTYYATWVNGRFTISSHNAQNTLYLQLNTLTAADTATYFCARDTGSTDYNFNLWGPGTLVTVSS VL: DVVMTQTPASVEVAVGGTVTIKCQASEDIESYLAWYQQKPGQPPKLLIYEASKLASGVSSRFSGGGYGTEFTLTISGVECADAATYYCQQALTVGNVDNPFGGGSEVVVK
// result 41

// query I have this binder here, 5D4-1 (antibody, V domains shown) VH: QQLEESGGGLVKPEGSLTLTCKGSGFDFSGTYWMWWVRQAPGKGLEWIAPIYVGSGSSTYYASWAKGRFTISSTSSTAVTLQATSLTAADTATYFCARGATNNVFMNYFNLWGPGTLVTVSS VL: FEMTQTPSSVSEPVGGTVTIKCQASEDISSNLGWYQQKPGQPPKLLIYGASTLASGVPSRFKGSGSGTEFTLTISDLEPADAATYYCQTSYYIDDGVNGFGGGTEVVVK , and I need its recorded Internalization %, MDA-MB-231, 1 µg/ml, 4 h.
// result 64

// query Look up Internalization %, MDA-MB-231, 1 µg/ml, 4 h: 10A9-2 (antibody, V domains shown) VH: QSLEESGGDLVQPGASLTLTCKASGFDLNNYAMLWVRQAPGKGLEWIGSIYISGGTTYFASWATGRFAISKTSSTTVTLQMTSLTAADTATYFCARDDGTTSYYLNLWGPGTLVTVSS VL: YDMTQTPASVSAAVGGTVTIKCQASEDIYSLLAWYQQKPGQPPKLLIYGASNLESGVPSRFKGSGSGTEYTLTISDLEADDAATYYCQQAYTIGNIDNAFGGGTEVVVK
// result 57

// query What value of Internalization %, MDA-MB-231, 1 µg/ml, 4 h has been recorded for this entry: 10A9 (antibody, V domains shown, Rabbit-derived clone; LEM construct: VH + rabbit IgG CH1 + human IgG1 CH2-CH3) VH: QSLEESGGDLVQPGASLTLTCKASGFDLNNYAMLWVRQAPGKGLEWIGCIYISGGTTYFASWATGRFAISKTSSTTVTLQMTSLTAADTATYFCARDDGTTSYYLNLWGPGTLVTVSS VL: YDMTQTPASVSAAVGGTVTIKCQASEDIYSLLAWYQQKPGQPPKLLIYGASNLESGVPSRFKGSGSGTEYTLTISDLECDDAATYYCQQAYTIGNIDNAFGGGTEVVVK
// result 55
